- Target desc: Gal(b1-4)GlcNAc(b1-3)[GlcNAc(b1-6)]Gal(b1-4)GlcNAc
- Experimental details: glycan array binding signal (z-score within array); higher = stronger binding
- Condition description: glycan notation: IUPAC condensed, linker removed
The entries come from a sample that favours the strongest signals as a whole.
Property name: glycan array binding signal (z-score)
Just the number, please, no unit after it.

Given the entry Langerin CRD (Homo sapiens), Q9UJ71 (protein) QVVSQGWKYFKGNFYYFSLIPKTWYSAEQFCVSRNSHLTSVTSESEQEFLYKTAGGLIYWIGLTKAGMEGDWSWVDDTPFNKVQSVRFWIPGEPNNAGNNEHCGNIKAPSLQAWNDAPCDKTFLFICKRPYVPSEPSAWSHPQFEK , report its measured glycan array binding signal (z-score).
0.314

// next record AMA (Arum maculatun) (protein) MAKLLLLLLLPAIVGLAVPRSAAAVGSNYMLSGETLNTDGRLTNGELTLIMQVDCNLVLYHGGWQSNTANNGRDCKLTLTDFGELVIKSGTGSTVWSSGSKQSMKGNYAAVVHPEGRLVIYGPSVFKINPSGAGLNGLPLRNIPLTNNMLFSGQVLYGDGTLSARNHKLVMQGDCNMVLYGGKYGWQSNTHGNGKYCFAMLTHKGELVIRDDDFKSVWSSKSSSKQGDYVFILQDDSLAIIYGPAVFSTGSKKMISMVTN
-0.227

// next record HHL-2 (Homo sapiens), P07307 (protein) MAKDFQDIQQLSSEENDHPFHQGEGPGTRRLNPRRGNPFLKGPPPAQPLAQRLCSMVCFSLLALSFNILLLVVICVTGSQSEGHRGAQLQAELRSLKEAFSNFSSSTLTEVQAISTHGGSVGDKITSLGAKLEKQQQDLKADHDALLFHLKHFPVDLRFVACQMELLHSNGSQRTCCPVNWVEHQGSCYWFSHSGKAWAEAEKYCQLENAHLVVINSWEEQKFIVQHTNPFNTWIGLTDSDGSWKWVDGTDYRHNYKNWAVTQPDNWHGHELGGSEDCVEVQPDGRWNDDFCLQVYRWVCEKRRNATGEVA
-0.539

// next record SLLPI (Mus musculus), Q9D9X8 (protein) MGICMSMYTQVLVPVDADGDHHILWSRFYERWGSCFNPCAGLVNCLPPHSSALYLCHRMEARSRAPRRQLCPPGITWLALAYLLSCLLASSKAKVFSRCELAKEMHDFGLDGYRGYNLADWVCLAYYTSGFNTNAVDHEADGSTNNGIFQISSRRWCRTLASNGPNLCRIYCTDLLNNDLKDSIVCAMKIVQEPLGLGYWEAWRHHCQGRDLSDWVDGCDF
-0.03

// next record OGAN (protein) MVQKESQATLEERESELSSNPAASAGASLEPPAAPAPGEDNPAGAGGAAVAGAAGGARRFLCGVVEGFYGRPWVMEQRKELFRRLQKWELNTYLYAPKDDYKHRMFWREMYSVEEAEQLMTLISAAREYEIEFIYAISPGLDITFSNPKEVSTLKRKLDQVSQFGCRSFALLFNDIDHNMCAADKEVFSSFAHAQVSITNEIYQYLGEPETFLFCPTEYCGTFCYPNVSQSPYLRTVGEKLLPGIEVLWTGPKVVSKEIPVESIEEVSKIIKRAPVIWDNIHANDYDQKRLFLGPYKGRSTELIPRLKGVLTNPNCEFEANYVAIHTLATWYKSNMNGVRKDVVMTDSEDSTVSIQIKLENEGSDEDIETDVLYSPQMALKLALTEWLQEFGVPHQY
-0.059

// next record SEX4 (Arabidopsis thaliana), Q944A8 (protein) TQAMGAVLTYRHELGMNYNFIRPDLIVGSCLQTPEDVDKLRKIGVKTIFCLQQDPDLEYFGVDISSIQAYAKKYSDIQHIRCEIRDFDAFDLRMRLPAVVGTLYKAVKRNGGVTYVHCTAGMGRAPAVALTYMFWVQGYKLMEAHKLLMSKRSCFPKLDAIRNATIDILTGLKRKTVTLTLKDKGFSRVEISGLDIGWGQRIPLTLGKGTGFWILKRELPEGQFEYKYIIDGEWTHNEAEPFIGPNKDGHTNNYAKVVDDPTSVDGTTRERLSSEDPELLEEERSKLIQFLETCSEAEV
-0.354

// next record Mermaid3 (Stilbonema majum) (protein) MGSSHHHHHHSSGLVPRGSHMAASGWLRSPQGTVVKLYRRSLSWSKADEFCKDVDGRLVVDRTADMHLFLIKNVLKEKKSRVWVGLRRTASHSRTWIWSDGTRQNEGDLDANLWLRDEPNDAAGEEECALFMYSPWEKAWGLNDYLCRGGCRNYQFICEKWIR
4.93

Recorded values, source the supplement of paper PMC8728848.
